assay: gradient 5% acetonitrile 3 min, to 50% in 2 min, to 85% in 15 min, held 3 min, 100 µL/min; conditions: column: Zorbax Extend-C18 2.1 x 50 mm; eluents: water / acetonitrile, 0.1% formic acid
readout: RP-LC retention time (s)
One number for each entry, in s.

Below, 4 compounds whose answers are already recorded.
{"columns": ["compound", "RP-LC retention time (s)"],
 "data": [
  ["CN(C)C(CNC(=O)C(=O)Nc1ccc(OC(F)(F)F)cc1)c1ccccc1Cl (stereo not given)", 622],
  ["O=C(c1cccc(Br)c1)N1CCC(n2c(-c3ccoc3)nc3cccnc32)C1 (stereo not given)", 775],
  ["CCc1ccc(S(=O)(=O)c2cnc(N3CCc4ccccc4C3)nc2N)cc1", 1170],
  ["CCC(C)NC(=O)Cn1ccc2ccc(-c3nnc(C)o3)cc21 (stereo not given)", 713]
]}

Below is a list of compounds. For each, state its recorded RP-LC retention time.
1. Cc1ccc(-c2cc3c4nnc(SCC(=O)NCCC(C)C)n4ccn3n2)cc1C
2. CN(C)C[C@@H]1CN(c2ncccn2)C[C@H]1NC(=O)C1(C)CCOCC1

[942, 532]

List the reported RP-LC retention time of each compound below.
1. CCc1ccccc1S(=O)(=O)N1CCC(C(=O)NCCc2csc(-c3cccs3)n2)CC1
2. C=CCn1c(=O)c2sc(N(CC)CC)nc2n(CC(=O)Nc2c(C)cccc2C)c1=O
3. O=C(NCc1ccc(F)cc1)c1ccc2c(c1)CCN2C(=O)C1CC1
4. COc1ccc(-c2nc3cccc(C)n3c2Nc2ccccc2C)cc1

981
830
813
773

Kindly give each listed record's RP-LC retention time.
1. N#Cc1cccc(-c2cn3c(n2)N(C(=O)c2ccccn2)CCC3)c1
2. CCN(c1ccccc1C)S(=O)(=O)c1cc(-c2[nH]ncc2C(=O)N2CCCC2)oc1C

1: 656; 2: 819

Origin of measurements: the METLIN SMRT retention time set (Domingo-Almenara et al. 2019)
